Test system: Escherichia coli TOP10
Assay: shrunken log2 fold change of peptide-encoding DNA abundance (4.5 h post-induction vs induction); higher = less antimicrobial activity (less host growth inhibition)
Settings: time post-induction: 4.5 h; library: site-saturation at positions 5, 18, 19, 20
Decide by shrunken log2 fold change: equal to or exceeding 0.005 means Satisfied, less means Not satisfied.

shrunken log2 fold change >= 0.005 for RRIRPRPPRLPRPRPRPPNYPRP ?
Not satisfied

shrunken log2 fold change >= 0.005 for RRIRIRPPRLPRPRPRPDHFPRP ?
Not satisfied

shrunken log2 fold change >= 0.005 for RRIRLRPPRLPRPRPRPNRQPRP ?
Not satisfied

shrunken log2 fold change >= 0.005 for RRIRWRPPRLPRPRPRPTLDPRP ?
Satisfied

shrunken log2 fold change >= 0.005 for RRIRERPPRLPRPRPRPPRCPRP ?
Not satisfied

----------
Kindly state shrunken log2 fold change for each of the entries shown.
Tested on: Escherichia coli TOP10
Experiment: shrunken log2 fold change of peptide-encoding DNA abundance (4.5 h post-induction vs induction); higher = less antimicrobial activity (less host growth inhibition)
Settings: time post-induction: 4.5 h; library: site-saturation at positions 5, 18, 19, 20
Give the figure only, with no unit attached.

Fill blank: measured shrunken log2 fold change of the sequence RRIRRRPPRLPRPRPRPMRRPRP is ____.
0.425

Fill blank: measured shrunken log2 fold change of the sequence RRIRCRPPRLPRPRPRPITWPRP is ____.
-0.189

Fill blank: measured shrunken log2 fold change of the sequence RRIRMRPPRLPRPRPRPSYMPRP is ____.
-0.276

Fill blank: measured shrunken log2 fold change of the sequence RRIRERPPRLPRPRPRPQILPRP is ____.
-0.179

Fill blank: measured shrunken log2 fold change of the sequence RRIRVRPPRLPRPRPRPVMQPRP is ____.
-0.0429

----------
System: Escherichia coli TOP10
Assay: shrunken log2 fold change of peptide-encoding DNA abundance (4.5 h post-induction vs induction); higher = less antimicrobial activity (less host growth inhibition)
Settings: time post-induction: 4.5 h; library: site-saturation at positions 5, 18, 19, 20
Endpoint Label: shrunken log2 fold change
Give the figure only, with no unit attached.

Fill blank: measured shrunken log2 fold change of the sequence RRIRHRPPRLPRPRPRPHLWPRP is ____.
-0.0776

Fill blank: measured shrunken log2 fold change of the sequence RRIRVRPPRLPRPRPRPNCFPRP is ____.
-0.158

Fill blank: measured shrunken log2 fold change of the sequence RRIRHRPPRLPRPRPRPPKMPRP is ____.
-0.0472

Fill blank: measured shrunken log2 fold change of the sequence RRIRRRPPRLPRPRPRPMCEPRP is ____.
0.516

Fill blank: measured shrunken log2 fold change of the sequence RRIRVRPPRLPRPRPRPEYCPRP is ____.
-0.154

Fill blank: measured shrunken log2 fold change of the sequence RRIRMRPPRLPRPRPRPNVQPRP is ____.
-0.166

Fill blank: measured shrunken log2 fold change of the sequence RRIRSRPPRLPRPRPRPKGWPRP is ____.
1.19

Fill blank: measured shrunken log2 fold change of the sequence RRIRVRPPRLPRPRPRPGDWPRP is ____.
0.432

Fill blank: measured shrunken log2 fold change of the sequence RRIRHRPPRLPRPRPRPDAGPRP is ____.
-0.0143

----------
Tested on: Escherichia coli TOP10
Experiment: shrunken log2 fold change of peptide-encoding DNA abundance (4.5 h post-induction vs induction); higher = less antimicrobial activity (less host growth inhibition)
Settings: time post-induction: 4.5 h; library: site-saturation at positions 5, 18, 19, 20
Endpoint Label: shrunken log2 fold change
Give the figure only, with no unit attached.

Fill blank: measured shrunken log2 fold change of the sequence RRIRERPPRLPRPRPRPRIAPRP is ____.
-0.246

Fill blank: measured shrunken log2 fold change of the sequence RRIRLRPPRLPRPRPRPSNRPRP is ____.
-0.599

Fill blank: measured shrunken log2 fold change of the sequence RRIRCRPPRLPRPRPRPTMKPRP is ____.
-0.246

Fill blank: measured shrunken log2 fold change of the sequence RRIRQRPPRLPRPRPRPQNWPRP is ____.
0.0213

Fill blank: measured shrunken log2 fold change of the sequence RRIRQRPPRLPRPRPRPWTCPRP is ____.
0.0112

Fill blank: measured shrunken log2 fold change of the sequence RRIRDRPPRLPRPRPRPRQVPRP is ____.
0.262

Fill blank: measured shrunken log2 fold change of the sequence RRIRRRPPRLPRPRPRPIAKPRP is ____.
0.252

Fill blank: measured shrunken log2 fold change of the sequence RRIRLRPPRLPRPRPRPIITPRP is ____.
-0.613

Fill blank: measured shrunken log2 fold change of the sequence RRIRKRPPRLPRPRPRPSMNPRP is ____.
-0.00473

Fill blank: measured shrunken log2 fold change of the sequence RRIRHRPPRLPRPRPRPPSPPRP is ____.
0.169

Fill blank: measured shrunken log2 fold change of the sequence RRIRERPPRLPRPRPRPCNWPRP is ____.
-0.0685

Fill blank: measured shrunken log2 fold change of the sequence RRIRGRPPRLPRPRPRPFQAPRP is ____.
0.112

----------
Kindly state shrunken log2 fold change for each of the entries shown.
Test system: Escherichia coli TOP10
Assay: shrunken log2 fold change of peptide-encoding DNA abundance (4.5 h post-induction vs induction); higher = less antimicrobial activity (less host growth inhibition)
Conditions: time post-induction: 4.5 h; library: site-saturation at positions 5, 18, 19, 20
Give the figure only, with no unit attached.

API: value(readout= shrunken log2 fold change, system= Escherichia coli TOP10, query= RRIRRRPPRLPRPRPRPWAFPRP )
0.00699

API: value(readout= shrunken log2 fold change, system= Escherichia coli TOP10, query= RRIRFRPPRLPRPRPRPSVCPRP )
-0.16

API: value(readout= shrunken log2 fold change, system= Escherichia coli TOP10, query= RRIRRRPPRLPRPRPRPYICPRP )
-0.452

API: value(readout= shrunken log2 fold change, system= Escherichia coli TOP10, query= RRIRSRPPRLPRPRPRPAFRPRP )
0.452

API: value(readout= shrunken log2 fold change, system= Escherichia coli TOP10, query= RRIRMRPPRLPRPRPRPSTFPRP )
0.147

API: value(readout= shrunken log2 fold change, system= Escherichia coli TOP10, query= RRIRPRPPRLPRPRPRPALQPRP )
0.0721

----------
Tested on: Escherichia coli TOP10;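 further: peptides expressed intracellularly from a pBAD plasmid library in pooled LB shake-flask culture, induced with 0.3% L-arabinose, DNA abundance read by NGS, three biological replicates, DESeq2 with apeglm shrinkage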
Test: shrunken log2 fold change of peptide-encoding DNA abundance (4.5 h post-induction vs induction); higher = less antimicrobial activity (less host growth inhibition)
Conditions: time post-induction: 4.5 h; library: site-saturation at positions 5, 18, 19, 20
Kindly state shrunken log2 fold change for each of the entries shown.
Give the figure only, with no unit attached.

Fill blank: measured shrunken log2 fold change of the sequence RRIRGRPPRLPRPRPRPVYAPRP is ____.
0.0566

Fill blank: measured shrunken log2 fold change of the sequence RRIRARPPRLPRPRPRPCFAPRP is ____.
0.61

Fill blank: measured shrunken log2 fold change of the sequence RRIRSRPPRLPRPRPRPEYNPRP is ____.
-0.229

Fill blank: measured shrunken log2 fold change of the sequence RRIRDRPPRLPRPRPRPYMSPRP is ____.
-0.00753

Fill blank: measured shrunken log2 fold change of the sequence RRIRCRPPRLPRPRPRPADWPRP is ____.
0.29

Fill blank: measured shrunken log2 fold change of the sequence RRIRLRPPRLPRPRPRPYQSPRP is ____.
-0.524

Fill blank: measured shrunken log2 fold change of the sequence RRIRLRPPRLPRPRPRPHPYPRP is ____.
-0.379

Fill blank: measured shrunken log2 fold change of the sequence RRIRKRPPRLPRPRPRPCAMPRP is ____.
0.367

Fill blank: measured shrunken log2 fold change of the sequence RRIRGRPPRLPRPRPRPTHMPRP is ____.
0.745
